Numbers sourced from the supplement of paper PMC10981050.

Test system: OCI-AML2;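 further: after 48 h exposure read by CellTiter-Glo luminescence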
Experiment: cell viability relative to vehicle control; higher = less cytotoxic
Details: 10 µM; SRSF2 genotype: wt/wt
Assignment: determine reported cell viability for the given compounds.
Reply with just the number (in %).

Quote cell viability reported for CN(C)C(=O)/C(C#N)=C/c1ccc(-c2nc3cnc4[nH]ccc4c3n2C2CCCCC2)o1 please.
71.5

Give the value of cell viability reported for the following: C[C@H]1[C@H](C)CC[C@]2(C(=O)O)CC[C@]3(C)C(=CC[C@@H]4[C@@]5(C)CC[C@H](O)C(C)(C)[C@@H]5CC[C@]43C)[C@H]12
92.8

Look up cell viability of Cc1cc(O)c2c(c1)C(=O)c1cccc(O)c1C2=O and report it.
83

Hello, please tell me recorded cell viability for this one: CC(=O)c1ccccc1
83.6

Tell me measured cell viability for C=CC(C)(O)CCC=C(C)C (configuration not stated) please.
97.4

Read off the recorded cell viability for Cc1ccc(S(=O)(=O)Nc2nc3ccccc3nc2Nc2ccc3nsnc3c2)cc1
94.5

Recall and state the measured cell viability for c1ccc(-c2[nH]ncc2-c2ccnc3ccccc23)nc1 .
105
